# assay_target: TR alpha-LBD (thyroid hormone receptor alpha) (Homo sapiens (Human), UniProt P10827)
# Sequence (P10827 other isoform, or with tags, fused parts or gaps del 1-162, other chains not shown): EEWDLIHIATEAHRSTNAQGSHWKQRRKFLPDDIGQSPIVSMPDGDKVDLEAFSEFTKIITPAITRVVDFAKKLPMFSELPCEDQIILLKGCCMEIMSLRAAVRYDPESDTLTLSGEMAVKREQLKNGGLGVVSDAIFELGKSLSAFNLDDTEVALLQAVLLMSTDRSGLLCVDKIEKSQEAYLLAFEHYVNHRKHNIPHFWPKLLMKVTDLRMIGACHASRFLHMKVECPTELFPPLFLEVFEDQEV
# assay_comment: LanthaScreen TR-FRET Thyroid Receptor alpha Coactivator Assay (agonist screening)
# condition_summary: TR alpha-LBD 0.4 nM, 2 hour incubation, average of duplicate runs, read-out: EC50 THRα-FRET
# Procedure: Example B1: Time-Resolved Fluorescence Resonance Energy Transfer (TR-FRET) Assay for Thyroid Hormone Receptor Agonist Screening LanthaScreen™ TR-FRET Thyroid Receptor alpha Coactivator Assay kit (ThermoFisher) and LanthaScreen™ TR-FRET Thyroid Receptor beta Coactivator Assay kit (ThermoFisher) were used for agonist compound screening. Compounds in DMSO were diluted using ECHO Liquid Handler (Labcyte Inc.) into 384 plates in 10-point 3-fold series in duplicate (5 micro M final top concentration). […]
pEC50: −log10 of the molar value.
measurement_label: pEC50

molecule	pEC50
Cc1c(NCc2noc(=O)[nH]2)cc(Cl)c(Oc2cc(C(C)C)c(=O)n(C)n2)c1Cl	6.82
O=C(Nc1cc(Cl)c(Oc2cc(C3CC3)c(=O)[nH]n2)c(Cl)c1)c1noc(=O)[nH]1	5.62

I = CC(C)c1cc(Oc2c(Cl)cc(NC(=O)c3noc(=O)[nH]3)c(F)c2Cl)nn(C)c1=O
II = CC(O)c1cc(Oc2c(Cl)cc(NC(=O)c3noc(=O)[nH]3)cc2Cl)n[nH]c1=O (stereo not shown)
query: From the items above, decide which of I and II has the lower pEC50 reading. // return label of chosen record
result: II

* * *

# assay_target: UniProtKB P10828
# Sequence (P10828 217-461): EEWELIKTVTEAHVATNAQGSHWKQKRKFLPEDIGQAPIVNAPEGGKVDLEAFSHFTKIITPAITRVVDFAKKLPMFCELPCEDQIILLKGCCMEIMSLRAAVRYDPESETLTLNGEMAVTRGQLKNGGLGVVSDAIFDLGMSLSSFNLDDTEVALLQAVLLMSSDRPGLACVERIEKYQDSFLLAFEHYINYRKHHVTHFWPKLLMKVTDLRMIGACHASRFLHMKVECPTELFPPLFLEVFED
# assay_comment: LanthaScreen TR-FRET Thyroid Receptor beta Coactivator Assay (agonist screening)
# Type: biochemical
# condition_summary: TR-FRET coactivator assay, TR beta-LBD 1.0 nM, 2 hour incubation; average of duplicate runs; read-out: EC50 THRβ-FRET
# Method: Example B1: Time-Resolved Fluorescence Resonance Energy Transfer (TR-FRET) Assay for Thyroid Hormone Receptor Agonist Screening LanthaScreen™ TR-FRET Thyroid Receptor alpha Coactivator Assay kit (ThermoFisher) and LanthaScreen™ TR-FRET Thyroid Receptor beta Coactivator Assay kit (ThermoFisher) were used for agonist compound screening. Compounds in DMSO were diluted using ECHO Liquid Handler (Labcyte Inc.) into 384 plates in 10-point 3-fold series in duplicate (5 micro M final top concentration). […]
measurement_label: EC50 (nM)

molecule	EC50 [nM]
CC(C)c1cc(Oc2c(Cl)cc(NC(=O)c3noc(=O)[nH]3)cc2Cl)n[nH]c1=O	87.3
CC(C)c1cc(Oc2c(Cl)cc(NC(=O)c3noc(=O)[nH]3)c(F)c2Cl)n[nH]c1=O	166
C[C@@H](O)c1cc(Oc2c(Cl)cc(NC(=O)c3noc(=O)[nH]3)cc2Cl)n[nH]c1=O	2640
CC(CO)c1cc(Oc2c(Cl)cc(NC(=O)c3noc(=O)[nH]3)cc2Cl)n[nH]c1=O (stereo not drawn)	468
O=C(Nc1cc(Cl)c(Oc2cc(C34CC(C3)C4)c(=O)[nH]n2)c(Cl)c1)c1noc(=O)[nH]1	600
CC(C)c1cc(Oc2c(Cl)cc(-c3cc(=O)[nH]o3)cc2Cl)nn(C)c1=O	60.9
CC(C)c1cc(Oc2c(Cl)cc(NC(=O)c3noc(=O)[nH]3)c3c2CCC3)nn(C)c1=O	188
O=C(Nc1cc(Cl)c(Oc2cc(C3CC3)c(=O)[nH]n2)c(Cl)c1)c1noc(=O)[nH]1	231
CC(C)c1cc(Oc2c(Cl)cc(-c3noc(=O)[nH]3)cc2Cl)n[nH]c1=O	290
CC(C)c1cc(Oc2c(Cl)cc(NCc3noc(=O)[nH]3)cc2Cl)n[nH]c1=O	74.2

A = CC(C)c1cc(Oc2c(Cl)cc(NC(=O)c3noc(=O)[nH]3)c(F)c2Cl)nn(C)c1=O
B = CC(O)c1cc(Oc2c(Cl)cc(NC(=O)c3noc(=O)[nH]3)cc2Cl)n[nH]c1=O (stereo not drawn)
C = CC(C)c1cc(Oc2c(Cl)cc(-c3cc(=O)[nH]o3)cc2Cl)n[nH]c1=O
D = CC(C)c1cc(Oc2c(Cl)cc(NC(=O)c3noc(=O)[nH]3)cc2Cl)nn(C)c1=O
E = Cc1c(NC(=O)c2noc(=O)[nH]2)cc(Cl)c(Oc2cc(C(C)C)c(=O)n(C)n2)c1Cl
query: List by increasing EC50. // rank by listing labels in the order requested
result: D, A, E, B, C

a = O=C(Nc1cc(Cl)c(Cc2cc(C3CC3)c(=O)[nH]n2)c(Cl)c1)c1noc(=O)[nH]1
b = CC(C)c1cc(Cc2c(Cl)cc(NCc3noc(=O)[nH]3)cc2Cl)nn(C)c1=O
query: From the items above, decide which of a and b has the lower EC50 reading. // return label of chosen record
result: b
(b: 44.2 nM, a: 180 nM)
